Data provenance: patent US9187496B2

- System: GS4.1 cells
- method-notes: Cytotoxicity evaluation in GS4.1 cells (Cell Titer 96 AQueous One)
- Format: cell-based, human
- run-conditions: cellular viability

# compound, CC50
measured = [
    ("CC(C)(C)OC(=O)N1CCCC1c1ncc(-c2cn3cc(-c4ccc(Cl)cc4)sc3n2)[nH]1 (centres unmarked)", "10 to 75 µM"),
    ("COC(=O)N[C@H](C(=O)N1CCC[C@H]1c1ncc(-c2ccc(-c3cc4sc(-c5cnc([C@@H]6CCCN6C(=O)[C@@H](NC(=O)OC)C(C)C)[nH]5)cc4s3)cc2)[nH]1)C(C)C", "> 75 µM"),
    ("CC(C)(C)OC(=O)N[C@@H](C(=O)N1CCC[C@H]1C(=O)Nc1cn2cc(C#Cc3ccccc3)sc2n1)c1ccccc1", "10 to 75 µM"),
    ("COC(=O)N[C@@H](C(=O)N1CCC[C@H]1C(=O)Nc1ccc(C#Cc2cn3cc(NC(=O)[C@@H]4CCCN4C(=O)[C@H](NC(=O)OC)c4ccccc4)nc3s2)cc1)c1ccccc1", "> 75 µM"),
    ("COC(=O)N[C@H](C(=O)N1CCC[C@H]1C(=O)Nc1cn2cc(-c3ccc(-c4cnc([C@@H]5CCCN5C(=O)[C@@H](NC(=O)OC)C(C)C)[nH]4)cc3)sc2n1)C(C)C", "10 to 75 µM"),
    ("COC(=O)N[C@H](C(=O)N1CCC[C@H]1c1ncc(-c2csc3c(-c4cnc([C@@H]5CCCN5C(=O)[C@@H](NC(=O)OC)C(C)C)[nH]4)csc23)[nH]1)C(C)C", "10 to 75 µM"),
    ("CC(C)(C)OC(=O)Nc1ccc(-c2cn3cc(NC(=O)[C@@H]4CCCN4C(=O)[C@H](NC(=O)OC(C)(C)C)c4ccccc4)nc3s2)cc1", "10 to 75 µM"),
    ("COC(=O)N[C@H](C(=O)N1CCCC1c1ncc(-c2ccc(-c3csc4c(-c5cnc(C6CCCN6C(=O)[C@H](NC(=O)OC)C(C)C)[nH]5)csc34)cc2)[nH]1)C(C)C (some centres unmarked)", "> 75 µM"),
    ("COC(=O)N[C@@H](C(=O)N1CCC[C@H]1C(=O)Nc1ccc(-c2cn3cc(NC(=O)[C@@H]4CCCN4C(=O)[C@H](NC(=O)OC)c4ccccc4)nc3s2)cc1)c1ccccc1", "> 75 µM"),
    ("COC(=O)N[C@H](C(=O)N1CCC[C@H]1C(=O)Nc1cn2cc(-c3ccc(NC(=O)CNC(=O)[C@H](NC(=O)OC(C)(C)C)c4ccccc4)cc3)sc2n1)C(C)C", "> 75 µM"),
    ("COC(=O)N[C@H](C(=O)N1CCCC1c1ncc(-c2cc3sc(-c4ncc(-c5c[nH]c([C@@H]6CCCN6C(=O)[C@@H](NC(=O)OC)C(C)C)n5)s4)cc3s2)[nH]1)C(C)C (some centres unmarked)", "> 75 µM"),
    ("COC(=O)N[C@H](C(=O)N1CCCC1c1ncc(-c2ccc(-c3cc4sc(Br)cc4s3)cc2)[nH]1)C(C)C (some centres unmarked)", "10 to 75 µM"),
    ("COC(=O)N[C@H](C(=O)N1CCCC1c1ncc(-c2ccc(-c3csc4c(-c5cnc(C6CCCN6C(=O)OC(C)(C)C)[nH]5)csc34)cc2)[nH]1)C(C)C (some centres unmarked)", "10 to 75 µM"),
    ("COC(=O)N[C@H](C(=O)N1CCCC1c1ncc(-c2ccc(-c3ccc(-c4nc5sccn5c4Cl)cc3)cc2)[nH]1)C(C)C (some centres unmarked)", "10 to 75 µM"),
]
